Recorded protein stability index by entry
B1: KLHL20 (parent)
chain: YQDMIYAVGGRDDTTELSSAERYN

- Variants of: B1
- protocol-notes: protein stability index of a GFP-peptide fusion (GPS, HEK-293T) (PSI 1-6); higher = more stable;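 also: lentivirally expressed fusions sorted by FACS into six bins by GFP to DsRed ratio, PSI derived from sequencing read proportions per bin multiplied by bin number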
- details: c terminus: a fixed tail appended
Give your answer as a number; write no unit.

Consider the following illustrative entries.
| alteration | protein stability index |
| --- | --- |
| D12E | 2.74 |
| R22Q | 2.77 |

Prompt: Field request: protein stability index | item: "Y23R"
Completion: 2.77

Prompt: Field request: protein stability index | item: "Y1Q"
Completion: 4.75

Prompt: Field request: protein stability index | item: "R11V"
Completion: 2.16

Prompt: Field request: protein stability index | item: "D3Q"
Completion: 3.08

Prompt: Field request: protein stability index | item: "D13H"
Completion: 1.98

Prompt: Field request: protein stability index | item: "D12R"
Completion: 1.78

Prompt: Field request: protein stability index | item: "I5P"
Completion: 2.72

Prompt: Field request: protein stability index | item: "T15M"
Completion: 1.92

Prompt: Field request: protein stability index | item: "R11I"
Completion: 2.44

Reference for the values: the supplement of paper PMC10567573
